System: NCI-H522 lung
assay.notes: NCI tumour cell line growth inhibition, 48 h; in the data active = GI50 below about 0.43 µM; inactive = the rest
Pick from active, inactive when you respond.

Outcome? `N#[N+]c1ccc(Nc2ccccc2)cc1`
inactive

Outcome? `Cc1cc(S(N)(=O)=O)c(S/C(=N\NS(=O)(=O)c2ccccc2)c2ccc(Cl)cc2)cc1Cl`
inactive

Outcome? `Nc1ccccc1C#Cc1ccccc1C#Cc1cccs1`
inactive

Outcome? COc1ccc(C2NC(=S)NC3=C2CCOc2c3ccc3ccccc23)cc1 (stereo not drawn)
inactive

Outcome? `CC1(C)N=C(N)N=C(N)N1c1cccc(CCc2ccccc2)c1`
inactive

Outcome? `CCOc1ccc2cc(-c3nn(CC4CCNCC4)c4ncnc(N)c34)ccc2c1`
inactive

Outcome? `O=C1Nc2ccc3c(c2/C1=C\c1cc2c(cc1Br)OCO2)OCO3`
active

Outcome? `CCn1c(-c2nonc2N)nc2cnc(Oc3cccc(NC(=O)c4ccc(N(C)C)cc4)c3)cc21`
inactive

Outcome? COc1ccc(C(O)c2cc3c(N)c(C(=O)Nc4cccc(Br)c4C)sc3nc2C)cc1 (stereo not drawn)
active

Outcome? `COc1cc(-c2nn(-c3cccc(NC(=O)CCN4CCN(c5ccccc5)CC4)c3)cc2-c2ccncc2)ccc1Cl`
inactive

Outcome? `COc1ccc2c(c1)C(=O)c1c-2c(OCCN(C)C)nc2cc(OC)c(OC)cc12`
inactive

Outcome? `C#C[C@]1(O)CC[C@H]2[C@@H]3CC=C4c5nc(N)sc5CC[C@]4(C)[C@H]3CC[C@@]21C`
inactive

Outcome? OCC(O)C(O)C(O)C(O)c1nnc2c(-c3ccccc3)nc3ccccc3n12 (stereo not drawn)
inactive

Outcome? COc1cc2c3cc1Oc1c(OC)c(OC)cc4c1C(Cc1ccc(O)c(c1)Oc1ccc(cc1)CC3N(C)CC2)N(C)CC4 (stereo not drawn)
inactive

Outcome? COCC(C(=O)OC1C/C=C/C=C/C(=O)OC(C(C)C(O)C(C)CCC(OC(=O)C(C)N(C)C)C(C)C(OC(C)=O)C(C)/C=C/N(C)C=O)C/C=C/C(OC)CC(C)C/C=C(\C)C(OC)CCC(C)C(O)C1C)N(C)C (stereo not drawn)
active

Outcome? `COc1cccc(-c2nc3sccn3c2-c2ccnc(NCCCNS(=O)(=O)c3ccccc3)c2)c1`
inactive

Outcome? `CS(=O)(=O)Nc1cc(-c2ccc3ncnc(Nc4cccc(Cl)c4)c3c2)cnc1Cl`
active

Outcome? CCCCCC[C@H]1C(=O)O[C@H](C)[C@H](NC(=O)c2cccc(NC=O)c2OC)C(=O)O[C@@H](C)[C@@H]1OC(=O)CCC (tested in a mixture with another compound)
inactive
